- assayed-target: UniProtKB P56658
- Sequence (P56658 whole entry): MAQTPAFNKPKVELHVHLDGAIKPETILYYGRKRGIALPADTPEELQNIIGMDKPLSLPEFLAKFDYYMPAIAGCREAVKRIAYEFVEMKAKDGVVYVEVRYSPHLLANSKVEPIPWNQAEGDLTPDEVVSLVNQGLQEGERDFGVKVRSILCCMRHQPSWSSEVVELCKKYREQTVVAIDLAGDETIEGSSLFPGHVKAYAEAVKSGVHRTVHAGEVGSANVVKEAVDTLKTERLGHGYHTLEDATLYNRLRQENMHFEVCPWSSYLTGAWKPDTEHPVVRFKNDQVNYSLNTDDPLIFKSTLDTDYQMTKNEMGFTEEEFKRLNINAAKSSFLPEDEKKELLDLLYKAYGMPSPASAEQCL
recorded-endpoint: Ki

[[record]]
compound = "Nc1ncnc2c1ncn2COCCP(=O)(O)O"
assayed_target = "UniProtKB P56658"
recorded_endpoint = "Ki"
observed_value = "18.2 µM"

[[record]]
compound = "Nc1ncnc2c1ncn2COCCO [VI, Acyclic adenosine, reference compound]"
assayed_target = "UniProtKB P56658"
recorded_endpoint = "Ki"
observed_value = "142 µM"


* * *

- procedure-summary: Solubility in H2O (phosphate buffer)
- recorded-conditions: 0.10 m phosphate buffer, aqueous buffer
Listing of recorded solubility at 20 h by entry.
recorded-endpoint: solubility at 20 h

[[record]]
compound = "COC(=O)C(C)NP(=O)(CCOCn1cnc2c(N)ncnc21)OC1C(CO)OC(n2cnc3c(N)ncnc32)C1O (centres unmarked) [Compound 42]"
recorded_endpoint = "solubility at 20 h"
observed_value = "8.25 mg/mL"

[[record]]
compound = "Nc1ncnc2c1ncn2[C@@H]1O[C@H](CO)[C@@H](O)[C@@H]1O [Compound 37, 9-(β-D-arabinofuranosyl)adenine, reference compound]"
recorded_endpoint = "solubility at 20 h"
observed_value = "0.4 mg/mL"

